Listing of entries alongside the reported solubility kinetic.
- protocol conditions: buffer; pH 7.4; 200.0 µM
experimental readout: solubility kinetic

compound	reading
CCOC(=O)c1cc(S(=O)(=O)NCc2ccco2)cn1C	> 0.0469 mg/mL
COc1cc2[nH]c(C(=O)NCC3CCCO3)cc2c(OC)c1OC (centres undefined)	> 0.0502 mg/mL
Cc1ccc(S(=O)(=O)N(C)CC(=O)OCC(=O)NCCc2ccc(S(N)(=O)=O)cc2)cc1	> 0.0725 mg/mL
CCC(C)c1ccccc1NC(=O)C(C)OC(=O)c1ccco1 (centres undefined)	> 0.0473 mg/mL
Brc1cccc(CNCC2CCCO2)c1 (centres undefined)	> 0.0405 mg/mL
O=C(COc1cccc(Cl)c1)NCc1ccccc1	> 0.0414 mg/mL
CCC(CO)(C(=O)OC1CC2CCC(C1)N2C)c1ccccc1.Cl (centres undefined)	> 0.0531 mg/mL
CC(NC(=O)CNC(=O)c1ccccc1Br)c1cccs1 (centres undefined)	> 0.0551 mg/mL
Cc1ccc(-n2ccnc2SCC(=O)O)cc1C	> 0.0393 mg/mL
O=C(COC(=O)/C=C/c1ccccc1)NC1CC1	> 0.0368 mg/mL
O=C(Nc1ccccc1)c1ccc2c(c1)OCCCO2	> 0.0404 mg/mL
CC(=O)/C=C1/C(=O)Nc2ccccc21	> 0.0281 mg/mL
CCc1cc(=O)[nH]c(SCc2cccnc2)n1	> 0.0371 mg/mL
Cc1nc2ccc(NC(=O)N3CCOCC3)cc2nc1C	> 0.0429 mg/mL
CC1CCCC(C)N1C(=O)COC(=O)c1ccco1 (centres undefined)	> 0.0398 mg/mL
CCOC(=O)c1c(C)[nH]c(C)c1C(=O)COC(=O)CCc1ccccc1	> 0.0536 mg/mL
Nc1cccc(-c2nc3ncccc3o2)c1	> 0.0317 mg/mL
COc1cccc(OCC(=O)NC2CCCCCC2)c1	> 0.0416 mg/mL
Cc1ccc(OC(=O)CCC(=O)Nc2ccc(C(N)=O)cc2)cc1	> 0.049 mg/mL

====

- protocol conditions: buffer; pH 7.4; 200.0 µM
experimental readout: solubility kinetic

molecule	experimental readout	reading
O=C(O)C1CC(=O)N(c2ccc(OCc3ccc(Br)cc3)cc2)C1 (centres undefined)	solubility kinetic	> 58.5 µg/mL
Cc1ccc(-c2c(NCCc3ccccc3)c(=O)c2=O)cc1	solubility kinetic	< 0.6 µg/mL
C[C@@H](C(=O)OCC(=O)c1ccc(F)c(F)c1)N1C(=O)C2CCCCC2C1=O (some centres undefined)	solubility kinetic	> 56.9 µg/mL
CCN(CC)CCN1CNC(=S)N(c2ccccc2OC)C1	solubility kinetic	> 48.4 µg/mL
CC1COc2ccccc2N1C(=O)c1cccnc1Cl (centres undefined)	solubility kinetic	> 43.3 µg/mL
CN(C)c1ccc(/C=C/c2cccc[n+]2[O-])cc1	solubility kinetic	> 36 µg/mL
CC(NCCC(Cc1ccccc1)c1ccco1)c1ccccc1 (centres undefined)	solubility kinetic	> 47.9 µg/mL
COc1cccc(C(=O)N(Cc2cccs2)C2CCS(=O)(=O)C2)c1 (centres undefined)	solubility kinetic	> 54.8 µg/mL
Cc1ccc(C23CC4CC(CC(C(=O)NC(C)C(=O)O)(C4)C2)C3)cc1 (centres undefined)	solubility kinetic	> 51.2 µg/mL
Cc1ccc(-c2csc3ncn(CC(N)=O)c(=O)c23)cc1C	solubility kinetic	> 47 µg/mL
Cc1cc(=O)[nH]c(SCC(=O)c2ccc(F)c(C)c2)n1	solubility kinetic	> 43.8 µg/mL
CC(=O)NC1(NC(C)=O)CCN(C)CC1	solubility kinetic	> 32 µg/mL
CCn1cc(CNC(=S)Nc2cccc3ccccc23)cn1	solubility kinetic	> 46.6 µg/mL
Cc1cc(C)nc(/N=C(\N)Nc2ccc(C(C)C)cc2)n1	solubility kinetic	> 42.5 µg/mL
COc1ccc(NC(=O)CSCc2ccc(C#N)cc2)c(OC)c1	solubility kinetic	> 51.4 µg/mL
Cc1ccc(C(=O)NC2CCCCNC2=O)cc1C (centres undefined)	solubility kinetic	> 39.1 µg/mL
COc1cc2c(cc1NC(=O)COCC(=O)O)oc1ccccc12	solubility kinetic	> 49.4 µg/mL
Cn1nc(C(C)(C)C)c([N+](=O)[O-])c1C(=O)N1CCOCC1	solubility kinetic	> 44.4 µg/mL
COC(=O)c1cc(COC(=O)c2nc3nc(C)cc(C)n3n2)oc1C	solubility kinetic	> 51.6 µg/mL
